target: Mannose-6-phosphate isomerase (Homo sapiens) (UniProt P34949); test: inhibitors of human PMI, primary screen, biochemical, fluorescence intensity, coupled assay (AID 1209); conditions: purified PMI enzyme, at 20 µM;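 also: plate controls were DMSO vehicle for no effect and wells lacking substrate for full effect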
Sequence (P34949 whole entry, looked up): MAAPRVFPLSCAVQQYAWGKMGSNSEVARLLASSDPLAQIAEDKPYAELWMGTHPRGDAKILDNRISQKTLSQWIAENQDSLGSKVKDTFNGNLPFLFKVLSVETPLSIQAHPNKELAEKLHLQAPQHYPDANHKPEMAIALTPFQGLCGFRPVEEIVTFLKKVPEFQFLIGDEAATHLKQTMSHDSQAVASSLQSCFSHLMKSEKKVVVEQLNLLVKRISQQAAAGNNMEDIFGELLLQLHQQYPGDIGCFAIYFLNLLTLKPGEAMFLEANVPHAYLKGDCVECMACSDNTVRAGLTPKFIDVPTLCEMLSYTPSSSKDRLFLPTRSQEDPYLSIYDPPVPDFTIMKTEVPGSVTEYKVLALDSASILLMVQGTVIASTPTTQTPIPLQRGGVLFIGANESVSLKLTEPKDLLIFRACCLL
In all, about 190,000 compounds went through this assay and about 810 (0.43%) were called active. Rule as the data show it: active = inhibition above about 50%; inactive = the rest. This is one part of a sample in which actives are shown more often than they occur.
Outcomes: active, inactive

[
  {
    "compound": "CCCCn1cnc(C(=O)OCC)c1N",
    "qualitative-label": "inactive"
  },
  {
    "compound": "CC1CCCC2(C1)NC(=S)c1c(sc3c1CCCC3)N2 (centres undefined)",
    "qualitative-label": "active"
  },
  {
    "compound": "CSc1cccc(NC(=O)/C=C/c2ccccc2)c1",
    "qualitative-label": "inactive"
  },
  {
    "compound": "O=C(NCc1cn2ccccc2n1)c1ccccc1",
    "qualitative-label": "inactive"
  },
  {
    "compound": "COC(=O)c1ccc(CSc2nnc(C)s2)cc1",
    "qualitative-label": "inactive"
  },
  {
    "compound": "CCC1N=C(SC)NC(C)=C1C(=O)c1ccccc1 (centres undefined)",
    "qualitative-label": "inactive"
  },
  {
    "compound": "O=C(Cc1ccc(Cl)cc1)Nc1cccc(S(=O)(=O)Nc2ccccc2F)c1",
    "qualitative-label": "inactive"
  },
  {
    "compound": "O=C(O)c1cccnc1SC1CC(=O)N(CCc2ccccc2)C1=O (centres undefined)",
    "qualitative-label": "inactive"
  },
  {
    "compound": "Cc1nnc(N/N=C\\c2ccc(-c3ccccc3[N+](=O)[O-])o2)n1N",
    "qualitative-label": "active"
  },
  {
    "compound": "COC(=O)c1ccc(OC(=O)c2ccco2)cc1",
    "qualitative-label": "inactive"
  },
  {
    "compound": "O=c1c2c([N+](=O)[O-])cc([N+](=O)[O-])cc2sn1-c1ccc(Br)cc1",
    "qualitative-label": "active"
  },
  {
    "compound": "CCOC(=O)c1sc(NC(=O)/C=C/c2ccccc2)nc1C",
    "qualitative-label": "inactive"
  },
  {
    "compound": "COCC(=O)N(C)c1nnc(-c2ccccn2)s1",
    "qualitative-label": "active"
  },
  {
    "compound": "COc1ccc(Nc2cc(C)nc3ccccc23)cc1",
    "qualitative-label": "inactive"
  }
]

---

biological target: Mannose-6-phosphate isomerase (Homo sapiens) (UniProt P34949); assay: inhibitors of human PMI, primary screen, biochemical, fluorescence intensity, coupled assay (AID 1209); details: purified PMI enzyme, at 20 µM;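 also: plate controls were DMSO vehicle for no effect and wells lacking substrate for full effect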
About 810 (0.43%) of roughly 190,000 compounds were called active. No stated cut-off is given here; in the data, active means inhibition above about 50%; inactive means the rest. This excerpt belongs to a sample that is enriched for actives.
Outcomes: Yes (active), No (inactive)

[
  {
    "molecule": "O=C(Nc1nc(-c2cccs2)cs1)c1cc2ccccc2oc1=O",
    "assay-system": "Mannose-6-phosphate isomerase (Homo sapiens) (UniProt P34949)",
    "qualitative-label": "No"
  },
  {
    "molecule": "CCCC(=O)OCCNc1cc(SCCC(=O)OC)c2nonc2c1[N+](=O)[O-]",
    "assay-system": "Mannose-6-phosphate isomerase (Homo sapiens) (UniProt P34949)",
    "qualitative-label": "Yes"
  },
  {
    "molecule": "Cc1ccc([N+](=O)[O-])cc1-c1[nH]c(-c2ccc(O)c(O)c2)nc1-c1ccccc1",
    "assay-system": "Mannose-6-phosphate isomerase (Homo sapiens) (UniProt P34949)",
    "qualitative-label": "Yes"
  },
  {
    "molecule": "Cc1ccc(CCNc2ccccc2C)cn1",
    "assay-system": "Mannose-6-phosphate isomerase (Homo sapiens) (UniProt P34949)",
    "qualitative-label": "No"
  },
  {
    "molecule": "CCC(=O)OCCNc1cc(SCCC(=O)OC)c2nonc2c1[N+](=O)[O-]",
    "assay-system": "Mannose-6-phosphate isomerase (Homo sapiens) (UniProt P34949)",
    "qualitative-label": "Yes"
  },
  {
    "molecule": "Cc1[nH]n(-c2ccccc2)c(=S)c1C=NCCCN=Cc1c(C)[nH]n(-c2ccccc2)c1=S",
    "assay-system": "Mannose-6-phosphate isomerase (Homo sapiens) (UniProt P34949)",
    "qualitative-label": "No"
  },
  {
    "molecule": "CC(=O)N1N=C(c2cccc(Cl)c2)OC1c1cccc([N+](=O)[O-])c1 (stereo not given)",
    "assay-system": "Mannose-6-phosphate isomerase (Homo sapiens) (UniProt P34949)",
    "qualitative-label": "No"
  },
  {
    "molecule": "COCCn1c(SCCN2CCCCC2)nc2ccccc2c1=O",
    "assay-system": "Mannose-6-phosphate isomerase (Homo sapiens) (UniProt P34949)",
    "qualitative-label": "No"
  },
  {
    "molecule": "O=C(CCCN1C(=O)/C(=C/c2ccccc2)SC1=S)Nc1cccc(O)c1",
    "assay-system": "Mannose-6-phosphate isomerase (Homo sapiens) (UniProt P34949)",
    "qualitative-label": "No"
  },
  {
    "molecule": "COc1ccc(C2CC2/C(C)=N/OC(=O)C2CC2)cc1 (stereo not given)",
    "assay-system": "Mannose-6-phosphate isomerase (Homo sapiens) (UniProt P34949)",
    "qualitative-label": "No"
  },
  {
    "molecule": "Cc1ccc2nc(N(CCCN(C)C)C(=O)COc3ccc(Cl)cc3)sc2c1",
    "assay-system": "Mannose-6-phosphate isomerase (Homo sapiens) (UniProt P34949)",
    "qualitative-label": "No"
  },
  {
    "molecule": "O=C(CSc1ccc(-c2ccc(Br)cc2)nn1)N1CCOCC1",
    "assay-system": "Mannose-6-phosphate isomerase (Homo sapiens) (UniProt P34949)",
    "qualitative-label": "No"
  },
  {
    "molecule": "CCCNCC(O)Cn1c2ccccc2n2c(=O)cc(C)c(C#N)c12 (stereo not given)",
    "assay-system": "Mannose-6-phosphate isomerase (Homo sapiens) (UniProt P34949)",
    "qualitative-label": "No"
  },
  {
    "molecule": "COc1ccc(CNC(=O)C(c2ccco2)N(C(=O)CNS(=O)(=O)c2ccccc2)c2ccccc2C)cc1 (stereo not given)",
    "assay-system": "Mannose-6-phosphate isomerase (Homo sapiens) (UniProt P34949)",
    "qualitative-label": "No"
  },
  {
    "molecule": "Cc1cccc(N2C(=O)CC(Sc3ncn[nH]3)C2=O)c1 (stereo not given)",
    "assay-system": "Mannose-6-phosphate isomerase (Homo sapiens) (UniProt P34949)",
    "qualitative-label": "No"
  }
]

---

target: Mannose-6-phosphate isomerase (Homo sapiens); experiment: inhibitors of human PMI, primary screen, biochemical, fluorescence intensity, coupled assay (AID 1209); settings: purified PMI enzyme, at 20 µM, active compounds read high;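 also: plate controls were DMSO vehicle for no effect and wells lacking substrate for full effect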
About 810 (0.43%) of roughly 190,000 compounds were called active. For the sample, actives were picked, then their nearest neighbours and some compounds at random.
measured-property: inhibition (%)

[
  {
    "molecule": "O=C(Nc1cc2c(oc1=O)CCCC2=O)c1cccc(Cl)c1",
    "assay-system": "Mannose-6-phosphate isomerase (Homo sapiens)",
    "measured-property": "inhibition",
    "numeric-readout": -17.4
  },
  {
    "molecule": "CCOC(=O)c1c(N)sc(C(=O)Nc2ccccc2F)c1C",
    "assay-system": "Mannose-6-phosphate isomerase (Homo sapiens)",
    "measured-property": "inhibition",
    "numeric-readout": 11.6
  },
  {
    "molecule": "CCOC(=O)c1sc(N)c(C(=O)OC)c1C",
    "assay-system": "Mannose-6-phosphate isomerase (Homo sapiens)",
    "measured-property": "inhibition",
    "numeric-readout": 7
  },
  {
    "molecule": "CCOC(=O)c1sc(N)c(C(=O)Nc2ccccc2OC)c1C",
    "assay-system": "Mannose-6-phosphate isomerase (Homo sapiens)",
    "measured-property": "inhibition",
    "numeric-readout": 60.2
  },
  {
    "molecule": "CCN(CC)c1ccc(/C=N/Nc2nc3ccccc3[nH]2)c(O)c1",
    "assay-system": "Mannose-6-phosphate isomerase (Homo sapiens)",
    "measured-property": "inhibition",
    "numeric-readout": 29.1
  },
  {
    "molecule": "CCn1cc(C(=O)OCC(=O)c2cc(C)n(-c3cccc(C(F)(F)F)c3)c2C)c(=O)c2ccc(C)nc21",
    "assay-system": "Mannose-6-phosphate isomerase (Homo sapiens)",
    "measured-property": "inhibition",
    "numeric-readout": -6.6
  },
  {
    "molecule": "CC1=NN(c2ccccc2)C(=O)/C1=C/C=C/c1ccccc1",
    "assay-system": "Mannose-6-phosphate isomerase (Homo sapiens)",
    "measured-property": "inhibition",
    "numeric-readout": 3.1
  },
  {
    "molecule": "Cc1ccc(NC(=S)N(CCCN2CCC(C)CC2)Cc2ccco2)cc1C",
    "assay-system": "Mannose-6-phosphate isomerase (Homo sapiens)",
    "measured-property": "inhibition",
    "numeric-readout": -3.2
  },
  {
    "molecule": "CCOC(=O)C(=O)Nc1sc(C(=O)N2CCOCC2)c(C)c1C#N",
    "assay-system": "Mannose-6-phosphate isomerase (Homo sapiens)",
    "measured-property": "inhibition",
    "numeric-readout": 2.7
  },
  {
    "molecule": "CCOC(=O)c1c(N)sc(C(=O)OC)c1C",
    "assay-system": "Mannose-6-phosphate isomerase (Homo sapiens)",
    "measured-property": "inhibition",
    "numeric-readout": -6.6
  },
  {
    "molecule": "CC(C)(C)C1CCc2c(C(=O)NNC(=O)CCCC(=O)O)csc2C1 (stereo not given)",
    "assay-system": "Mannose-6-phosphate isomerase (Homo sapiens)",
    "measured-property": "inhibition",
    "numeric-readout": -6.1
  },
  {
    "molecule": "CCOC(=O)c1sc(N)c(C(N)=O)c1C",
    "assay-system": "Mannose-6-phosphate isomerase (Homo sapiens)",
    "measured-property": "inhibition",
    "numeric-readout": 64.3
  },
  {
    "molecule": "CC1Cc2ccccc2N1C(=O)CSc1nnc(-c2ccc(S(=O)(=O)N3CCCC3)cc2)n1C (stereo not given)",
    "assay-system": "Mannose-6-phosphate isomerase (Homo sapiens)",
    "measured-property": "inhibition",
    "numeric-readout": 60.6
  },
  {
    "molecule": "CC(C)N(C(=O)c1sc2cc([N+](=O)[O-])ccc2c1Cl)C(C)C",
    "assay-system": "Mannose-6-phosphate isomerase (Homo sapiens)",
    "measured-property": "inhibition",
    "numeric-readout": 0.2
  },
  {
    "molecule": "COc1cc([N+](=O)[O-])ccc1NC(=O)/C=C/C(=O)O",
    "assay-system": "Mannose-6-phosphate isomerase (Homo sapiens)",
    "measured-property": "inhibition",
    "numeric-readout": -26.7
  },
  {
    "molecule": "C=CCn1c(N)c(C(=O)NCC2CCCO2)sc1=S (stereo not given)",
    "assay-system": "Mannose-6-phosphate isomerase (Homo sapiens)",
    "measured-property": "inhibition",
    "numeric-readout": -2.2
  },
  {
    "molecule": "Oc1ccc(-c2cn3c(n2)SCC3)cc1",
    "assay-system": "Mannose-6-phosphate isomerase (Homo sapiens)",
    "measured-property": "inhibition",
    "numeric-readout": -8.6
  },
  {
    "molecule": "COc1ccc(Nc2nc(N)nc(CSC(=S)N3CCOCC3)n2)cc1",
    "assay-system": "Mannose-6-phosphate isomerase (Homo sapiens)",
    "measured-property": "inhibition",
    "numeric-readout": -8.7
  },
  {
    "molecule": "CC(OC(=O)C1=COCCO1)C(=O)Nc1cc(S(=O)(=O)N2CCCCC2)ccc1Cl (stereo not given)",
    "assay-system": "Mannose-6-phosphate isomerase (Homo sapiens)",
    "measured-property": "inhibition",
    "numeric-readout": -6.3
  },
  {
    "molecule": "COc1ccc(-c2nc(SC)n(C)c(=O)c2C#N)cc1OC",
    "assay-system": "Mannose-6-phosphate isomerase (Homo sapiens)",
    "measured-property": "inhibition",
    "numeric-readout": 13.4
  }
]

Cited source for all entries: PubChem BioAssay AID1209
